Just for reference, patent US6444617B1 is where these values come from.

# Tested on: barnyard grass (Echinochloa crus-galli Beauv.), Ec
# procedure.details: Test Example 4: herbicidal effect on upland weeds after emergence
# Assay type: in vivo
# condition.details: dosage 5 kg/ha; sprayed after emergence; judged 14 days after treatment
Form field: Herbicidal effect Ec (one value per entry).
quantity.name: Herbicidal effect Ec

CCNC(=O)c1nc2ccccc2cc1C(=O)Nc1c(CC)ccc(Cl)c1CC [359-2]	5 (Weed-killing rate is 100%.)
CCNC(=O)c1nc2ccc(OC)cc2cc1C(=O)Nc1c(CC)ccc(Cl)c1CC [compound 289]	5 (Weed-killing rate is 100%.)
CCCNC(=O)c1nc2c(cc1C(=O)Nc1cccc(Cl)c1C)CCOC2 [compound 450]	5 (Weed-killing rate is 100%.)
CCc1ccc(Cl)c(CC)c1NC(=O)c1cc2cc3c(cc2nc1C(=O)NC1CCCC1)OCO3 [compound 343]	4 (Weed-killing rate is 90-99%.)

---

Attribute: Herbicidal effect Vp
# Tested on: bird's eye speedwell (Veronica persica Poir.), Vp
# procedure.details: Test Example 4: herbicidal effect on upland weeds after emergence
# Format: in vivo
# condition.details: dosage 5 kg/ha; sprayed after emergence; judged 14 days after treatment
quantity.name: Herbicidal effect Vp

CCNC(=O)c1nc2sccc2cc1C(=O)Nc1c(CC)ccc(Cl)c1CC	5 (Weed-killing rate is 100%.)
CCCNC(=O)c1nc2ncccc2cc1C(=O)Nc1cccc(Cl)c1C	5 (Weed-killing rate is 100%.)
CCCNC(=O)c1nc2cc(OC)c(OC)cc2cc1C(=O)Nc1c(CC)ccc(Cl)c1CC	4 (Weed-killing rate is 90-99%.)
CCCNC(=O)c1nc2ccccc2nc1C(=O)Nc1c(CC)ccc(Cl)c1CC	5 (Weed-killing rate is 100%.)
Cc1c(Cl)cccc1NC(=O)c1cc2ccsc2nc1C(=O)NC1CCCC1	5 (Weed-killing rate is 100%.)
CCc1ccc(Cl)c(CC)c1NC(=O)c1cc2cc3c(cc2nc1C(=O)NCC(C)C)OCO3	4 (Weed-killing rate is 90-99%.)
CCCNC(=O)c1nc2cc3c(cc2cc1C(=O)Nc1c(CC)ccc(Cl)c1CC)OCO3	4 (Weed-killing rate is 90-99%.)
CCCNC(=O)c1nc2nc(C)n(C)c2cc1C(=O)Nc1c(CC)ccc(Cl)c1CC	5 (Weed-killing rate is 100%.)

---

# Tested on: wheat
# procedure.details: Test Example 4: phytotoxicity to upland crop plants, treatment after emergence
# Type: in vivo
# condition.details: dosage 5 kg/ha, sprayed after emergence, judged 14 days after treatment
quantity.name: Phytotoxicity Wh

CCCNC(=O)c1cc2c(nc1C(=O)Nc1c(CC)ccc(Cl)c1CC)S(=O)(=O)CC2 [Compound No. 1040]	5 (Crop-killing rate is 100%.)
CCCNC(=O)c1nc2occc2cc1C(=O)Nc1c(CC)ccc(Cl)c1CC [compound 775]	5 (Crop-killing rate is 100%.)
CCCNC(=O)c1nc2c(cc1C(=O)Nc1c(CC)ccc(Cl)c1CC)CCSC2 [compound 534]	4 (Crop-killing rate is 90-99%.)
CCCNC(=O)c1nc2ccccc2nc1C(=O)Nc1c(CC)ccc(Cl)c1CC [compound 1306]	5 (Crop-killing rate is 100%.)
CCCNC(=O)c1nc2ccc(O)cc2cc1C(=O)Nc1c(CC)ccc(Cl)c1CC [compound 276]	3 (Crop-killing rate is 70-89%.)
CCc1ccc(Cl)c(CC)c1NC(=O)c1cc2ccccc2nc1C(=O)NC [359-1]	2 (Crop-killing rate is 40-69%.)
CCCNC(=O)c1nc2ccsc2cc1C(=O)Nc1c(CC)ccc(Cl)c1CC [compound 871]	5 (Crop-killing rate is 100%.)
CCCNC(=O)c1nc2ccn(C)c2cc1C(=O)Nc1c(CC)ccc(Cl)c1CC [compound 907]	5 (Crop-killing rate is 100%.)
